test: in vitro; conditions: cat, CC50

SMILES DATA	INEQUALITY SYMBOL	CC50 at 24 h / µM
O=c1cc(-c2ccc(O)c(-c3c(O)cc(O)c4c(=O)cc(-c5ccc(O)cc5)oc34)c2)oc2cc(O)cc(O)c12	=	197
O=c1cc(-c2ccc(O)cc2)oc2cc(O)cc(O)c12	=	22.2
O=c1cc(-c2ccc(O)c(O)c2)oc2cc(O)cc(O)c12	>	200
O=C(O)[C@H]1O[C@@H](Oc2cc3oc(-c4ccccc4)cc(=O)c3c(O)c2O)[C@H](O)[C@@H](O)[C@@H]1O	>	200
COc1ccc(-c2cc(=O)c3c(O)cc(O[C@@H]4O[C@H](CO[C@@H]5O[C@@H](C)[C@H](O)[C@@H](O)[C@H]5O)[C@@H](O)[C@H](O)[C@H]4O)cc3o2)cc1O	>	200
C[C@@H]1O[C@@H](OC[C@H]2O[C@@H](Oc3c(-c4ccc(O)c(O)c4)oc4cc(O)cc(O)c4c3=O)[C@H](O)[C@@H](O)[C@@H]2O)[C@H](O)[C@H](O)[C@H]1O	>	200
O=c1c(-c2ccc(O)cc2)coc2c([C@@H]3O[C@H](CO)[C@@H](O)[C@H](O)[C@H]3O)c(O)ccc12	=	195
